- Method: Cmax in BomTac:NMRI-Foxn1 mouse xenografted with human Calu6 cells harboring KRAS Q61K mutant at 70 mg/kg per week, po via gavage measured after 24 hrs by electrochemo-luminescence analysis
- Format: ADME, organism-based, Calu-6
- Set-up: dose 70 mg/kg, time 24 hrs, route po
- Setup conditions: in vivo
Property measured: Cmax (nM)
Numbers only, in nM.

Data request, read-out Cmax, for "CCNC(=O)C#Cc1ccc2c(c1)NC(=O)/C2=C(\Nc1ccc(CN(C)C)cc1)c1ccccc1"
460

---

- Tested on: UniProt:Q6GPL3
- Sequence (Q6GPL3 whole entry): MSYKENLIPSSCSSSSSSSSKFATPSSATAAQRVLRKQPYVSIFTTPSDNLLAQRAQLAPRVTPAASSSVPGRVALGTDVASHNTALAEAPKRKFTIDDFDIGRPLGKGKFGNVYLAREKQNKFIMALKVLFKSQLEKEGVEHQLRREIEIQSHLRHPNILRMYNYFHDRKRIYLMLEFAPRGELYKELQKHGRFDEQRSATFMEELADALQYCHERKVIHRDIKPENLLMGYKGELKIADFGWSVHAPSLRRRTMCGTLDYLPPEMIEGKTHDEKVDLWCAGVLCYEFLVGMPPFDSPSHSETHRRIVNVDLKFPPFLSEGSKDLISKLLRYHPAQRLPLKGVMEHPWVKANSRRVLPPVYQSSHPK
Property measured: IC50 (nM)
Answers are plain numbers, in nM.

Data request, read-out IC50, for "CCNC(=O)C#Cc1ccc2c(c1)NC(=O)/C2=C(\Nc1ccc(CN(C)C)cc1)c1ccccc1"
3

---

- Method: Inhibition of Xenopus laevis Aurora Kinase C
Property measured: IC50
Answers without a unit are incomplete; give the number and then its unit.

Data request, read-out IC50, for "CCNC(=O)C#Cc1ccc2c(c1)NC(=O)/C2=C(\Nc1ccc(CN(C)C)cc1)c1ccccc1"
15 nM

---

- Method: Cmax in BomTac:NMRI-Foxn1 mouse xenografted with human Calu6 cells harboring KRAS Q61K mutant at 10 mg/kg per day, po via gavage measured after 24 hrs by electrochemo-luminescence analysis
- Format: ADME, organism-based, Calu-6
- Parameters: time 24 hrs, dose 10 mg/kg, route po
- Setup conditions: in vivo
Property measured: Cmax (nM)
One number for each entry, in nM.

Data request, read-out Cmax, for "CCNC(=O)C#Cc1ccc2c(c1)NC(=O)/C2=C(\Nc1ccc(CN(C)C)cc1)c1ccccc1"
13

---

- System: SW480
- Method: Antiproliferative activity against human SW480 cells harboring […] mutant assessed as cell growth inhibition measured after 72 hrs by WST-8 assay
- Format: functional, cell-based
- Setup conditions: SW480, 72 h
Property measured: IC50 (nM)
Numbers only, in nM.

Data request, read-out IC50, for "CNS(=O)(=O)Nc1nccc(Cc2c(C)c3ccc(Oc4ncccn4)cc3oc2=O)c1F"
46

---

- System: MOLM-13
- Method: Antiproliferative activity against human MOLM13 cells harboring FLT3-ITD mutant assessed as cell growth inhibition by Trypan blue staining based assay
- Type: functional
Property measured: pIC50
Answers are plain numbers, as −log10 of the molar value.

Data request, read-out pIC50, for "CCNc1cc(O)c2c(c1)/C=C/C[C@H](O)[C@H](O)C(=O)/C=C\[C@@H](C)[C@H](C)OC2=O"
8.30

The reported numbers originate from ChEMBL document CHEMBL5104137.
